In this section, each of the molecules is paired with its reported pEC50.
Molecular target: Human immunodeficiency virus type 1 reverse transcriptase (Human immunodeficiency virus 1)
Assay: Binding affinity to Human immunodeficiency virus 1 reverse transcriptase
READOUT KIND: pEC50

| MOLECULE | EXPERIMENTAL VALUE |
| --- | --- |
| CC(C)=CCN1Cc2c(Cl)ccc3[nH]c(=S)n(c23)C[C@@H]1C | 8.34 |
| CC(C)=CCN1Cc2cc(Cl)cc3nc(O)n(c23)CC1C (configuration not stated) | 7.6 |
| CC1Cn2c(S)nc3cc(Cl)cc(c32)CN1CC1CCC1 (configuration not stated) | 7.37 |
| C=C(C)CN1Cc2cc(Cl)cc3[nH]c(=S)n(c23)CC1C (configuration not stated) | 6.35 |
| CC1Cn2c(S)nc3cc(Cl)cc(c32)CN1CCC1CC1 (configuration not stated) | 5.66 |
| CCC(=CCN1Cc2cc(Cl)cc3nc(S)n(c23)CC1C)CC (configuration not stated) | 7.82 |
| CC(C)=CCN1Cc2cc(C)cc3[nH]c(=S)n(c23)CC1C (configuration not stated) | 6.1 |
| C=CCN1Cc2cccc3[nH]c(=O)n(c23)CC1C (configuration not stated) | 4.23 |
| CC(C)=CCN1Cc2cccc3[nH]c(=S)n(c23)CC1C (configuration not stated) | 7.36 |
| CC(C)=CCN1Cc2c(C)ccc3nc(S)n(c23)C[C@@H]1C | 7.85 |
| C=C(C)CN1Cc2cccc3[nH]c(=O)n(c23)CC1C (configuration not stated) | 4.85 |
| CCCN1Cc2cccc3[nH]c(=S)n(c23)CC1C (configuration not stated) | 6.62 |
